Taken from PubChem BioAssay AID1347426.

experiment: Novel Modifiers of Survival Motor Neuron (SMN) Protein: Gene Identification via Genome-wide siRNA Screen; conditions: HEK293T SMN2-luciferase reporter, siRNA knockdown, 72 h; actives lie on both sides;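 further: luminescence tracks full-length SMN protein made from the SMN2 reporter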
Among all 31,000 sequences or so, about 1,400 (4.5%) were called active.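 How the source made its calls: active means median seed-adjusted z-score above 1 or below -1; inactive means the rest.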 This excerpt belongs to a sample that is enriched for actives.
Reply using exactly one outcome from yes (1) (active), no (0) (inactive)

Use these answered entries as a reference point.
[
  {
    "input-sequence": "GGAGUGAUGAUAACGAGGATT against LATS1",
    "assigned-category": "no (0)"
  },
  {
    "input-sequence": "GUAUUGCCUUUGUCAAGAATT against SNX19",
    "assigned-category": "no (0)"
  },
  {
    "input-sequence": "GUAUCUAACUUAUCUACUATT against HTR5A",
    "assigned-category": "no (0)"
  },
  {
    "input-sequence": "GACUGUGAGACUUACCAUATT against MED20",
    "assigned-category": "yes (1)"
  },
  {
    "input-sequence": "GCUUUACCUUGGACCUGAATT against MPL",
    "assigned-category": "no (0)"
  },
  {
    "input-sequence": "GGUCUAAACUUGAUCCAAATT against CCAR1",
    "assigned-category": "yes (1)"
  },
  {
    "input-sequence": "CCAUGAGUGUGACUCUCAATT against ZNF599",
    "assigned-category": "no (0)"
  },
  {
    "input-sequence": "GAAUGAUGAUGCAUGCCUUTT against MS4A10",
    "assigned-category": "no (0)"
  },
  {
    "input-sequence": "GAAGGGCUCUUUCACAGCUTT against ADAMTS13",
    "assigned-category": "no (0)"
  },
  {
    "input-sequence": "CUGCUCUAAUUACACCGUATT against CILP",
    "assigned-category": "no (0)"
  }
]

Prompt: Hi, do you know how GAAAUACUGCGGUAUAAAATT against SYTL2 came out in this test?
Completion: no (0)

Prompt: State the result this test recorded for CCAGUGAUGUAAGUUCUUATT against GCG .
Completion: yes (1)
